Test system: NrF2 (Nuclear factor (erythroid-derived 2)-like 2)
Assay: NrF2 activation in a whole cell nuclear translocation assay
Assay type: cell-based
Settings: reference fumarates, read-out: NrF2 activation EC50
Method: NrF2 Activation in a Whole Cell Nuclear Translocation Assay Compounds were tested in a NrF2 (Nuclear factor (erythroid-derived 2)-like 2) translocation assay by adapting the methods set forth in U.S. Pat. No. 8,101,373, the disclosure of which is incorporated herein by reference.
Structures can show the parent of a compound that is named as a salt.
quantity kind: EC50

In [3]: df
Out[3]:
                                   compound  quantity_kind      val
0  COC(=O)/C=C/C(=O)O [Monomethyl fumarate, monomethyl fumarate, reference compound]           EC50  ~127 µM
1  COC(=O)/C=C/C(=O)OC [dimethyl fumarate, reference compound]           EC50  ~7.9 µM
